Overview of reported IC50 across a group of compounds:
target: Transient receptor potential cation channel subfamily V member 1 (Homo sapiens); assay: Inhibition of human transient receptor potential vanilloid 1 receptor (n=6)
Write down the numeric answer in µM and omit the unit.

O=C(Nc1ccc([N+](=O)[O-])cc1)N1CCN(c2ncccc2C(F)(F)F)CC1 :: 0.074

## Task What does the record list as IC50 for O=C(Nc1cccc2cccnc12)N1CCN(c2ncccc2C(F)(F)F)CC1 ?
## Result 8.13

====

biological target: Transient receptor potential cation channel subfamily V member 1 (Homo sapiens); test: Effective concentration against human transient receptor potential vanilloid 1 receptor (n=3)
Overview of reported pEC50 across a group of molecules:
Worth noting: pEC50 values are minus log10 of concentrations stated in mol/L.

O=C(Nc1cccc2ncccc12)N1CCN(c2ncccc2C(F)(F)F)CC1 :: 5.28

## Task Kindly state the measured pEC50 obtained for O=C(Nc1ccncc1)N1CCN(c2ncccc2C(F)(F)F)CC1 with Transient receptor potential cation channel subfamily V member 1 (Homo sapiens).
## Result 5.94

====

molecular target: Transient receptor potential cation channel subfamily V member 1 (Homo sapiens, UniProt Q8NER1); assay: Effective concentration against human transient receptor potential vanilloid 1 receptor (n=6)
Sequence (Q8NER1 whole entry): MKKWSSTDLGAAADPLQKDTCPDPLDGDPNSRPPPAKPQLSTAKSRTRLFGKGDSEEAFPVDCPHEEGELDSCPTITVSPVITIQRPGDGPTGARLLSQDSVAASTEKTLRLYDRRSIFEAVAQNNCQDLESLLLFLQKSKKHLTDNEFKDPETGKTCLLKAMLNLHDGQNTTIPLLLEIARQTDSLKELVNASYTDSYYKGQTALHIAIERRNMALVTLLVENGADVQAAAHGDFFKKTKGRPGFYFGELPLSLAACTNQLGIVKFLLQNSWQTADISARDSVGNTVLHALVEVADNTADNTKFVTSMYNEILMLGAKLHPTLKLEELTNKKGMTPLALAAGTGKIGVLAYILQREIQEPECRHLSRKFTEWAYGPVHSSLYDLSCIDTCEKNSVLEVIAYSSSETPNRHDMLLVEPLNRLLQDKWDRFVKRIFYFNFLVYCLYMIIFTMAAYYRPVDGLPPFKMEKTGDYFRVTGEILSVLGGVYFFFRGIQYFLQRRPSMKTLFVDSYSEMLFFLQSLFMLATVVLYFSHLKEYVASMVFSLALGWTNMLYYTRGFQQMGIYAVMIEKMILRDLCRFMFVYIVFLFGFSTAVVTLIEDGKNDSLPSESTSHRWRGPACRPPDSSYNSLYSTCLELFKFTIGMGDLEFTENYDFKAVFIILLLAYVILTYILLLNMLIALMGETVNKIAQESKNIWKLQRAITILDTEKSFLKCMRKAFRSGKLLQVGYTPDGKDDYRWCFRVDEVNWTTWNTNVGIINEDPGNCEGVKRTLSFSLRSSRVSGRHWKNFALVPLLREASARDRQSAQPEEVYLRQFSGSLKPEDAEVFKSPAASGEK
ASSAY METRIC: pEC50
Worth noting: pEC50 values are minus log10 of concentrations stated in mol/L.

## Task What does the record list as pEC50 for O=C(Nc1ccc(Cl)cc1)N1CCN(c2ccncc2)CC1 ?
## Result 5.14

====

target: Transient receptor potential cation channel subfamily V member 1 (Rattus norvegicus); assay: Inhibition of rat transient receptor potential vanilloid 1 receptor (n=3)
Sequence (O35433 whole entry): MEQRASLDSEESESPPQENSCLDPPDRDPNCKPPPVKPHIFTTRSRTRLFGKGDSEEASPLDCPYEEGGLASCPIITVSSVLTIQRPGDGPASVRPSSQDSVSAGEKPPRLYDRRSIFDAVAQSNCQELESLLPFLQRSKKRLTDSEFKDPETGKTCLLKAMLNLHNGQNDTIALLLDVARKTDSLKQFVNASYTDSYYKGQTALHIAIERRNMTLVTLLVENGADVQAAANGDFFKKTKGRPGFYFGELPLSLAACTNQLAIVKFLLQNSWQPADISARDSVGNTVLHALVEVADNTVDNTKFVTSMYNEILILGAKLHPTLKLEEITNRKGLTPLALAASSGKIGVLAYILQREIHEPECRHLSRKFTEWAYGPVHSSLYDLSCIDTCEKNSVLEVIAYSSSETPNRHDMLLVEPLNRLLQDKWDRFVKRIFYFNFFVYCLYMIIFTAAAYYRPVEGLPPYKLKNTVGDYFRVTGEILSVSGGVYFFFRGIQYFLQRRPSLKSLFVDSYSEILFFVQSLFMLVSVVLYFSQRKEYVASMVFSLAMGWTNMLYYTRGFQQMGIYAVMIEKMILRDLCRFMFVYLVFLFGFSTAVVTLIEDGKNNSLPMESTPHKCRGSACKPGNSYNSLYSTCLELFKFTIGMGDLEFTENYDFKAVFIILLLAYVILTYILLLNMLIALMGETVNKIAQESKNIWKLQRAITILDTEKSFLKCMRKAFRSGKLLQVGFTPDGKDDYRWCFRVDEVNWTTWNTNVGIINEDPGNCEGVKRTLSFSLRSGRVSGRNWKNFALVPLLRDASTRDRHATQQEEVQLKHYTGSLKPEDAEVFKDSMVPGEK
ASSAY METRIC: IC50 (nM)
Write down the numeric answer in nM and omit the unit.

Cc1cccnc1N1CCN(C(=O)Nc2ccc(C(F)(F)F)cc2)CC1 :: 194

## Task What does the record list as IC50 for Cc1cccnc1N1CCN(C(=O)Nc2ccc(Cl)cc2)CC1 ?
## Result 409

## Task What does the record list as IC50 for O=C(Nc1ccc([N+](=O)[O-])cc1)N1CCN(c2ncccc2C(F)(F)F)CC1 ?
## Result 100

## Task What does the record list as IC50 for O=C(Nc1ccc(C(F)(F)F)cc1)N1CCN(c2ccccn2)CC1 ?
## Result 863

## Task What does the record list as IC50 for O=C(Nc1cnc2ccccc2c1)N1CCN(c2ncccc2C(F)(F)F)CC1 ?
## Result 2300

## Task What does the record list as IC50 for O=C(Nc1ccc(C(F)(F)F)cc1)NC1CCN(c2ncccc2C(F)(F)F)C1 (stereo not given) ?
## Result 13100

## Task What does the record list as IC50 for CC1CN(c2ncccc2C(F)(F)F)CC(C)N1C(=O)Nc1ccc(C(F)(F)F)cc1 (stereo not given) ?
## Result 3720

## Task What does the record list as IC50 for O=C(Nc1cccc2cccnc12)N1CCN(c2ncccc2C(F)(F)F)CC1 ?
## Result 14700

====

biological target: UniProtKB Q8NER1; test: Inhibition of human transient receptor potential vanilloid 1 receptor (n=4)
ASSAY METRIC: pIC50
Worth noting: pIC50 values are minus log10 of concentrations stated in mol/L.

Would you please look over these solved cases?
O=C(Nc1ccc2ncccc2c1)N1CCN(c2ncccc2C(F)(F)F)CC1 :: 6.04
Cc1cccnc1C1CCN(C(=O)Nc2ccc(C(F)(F)F)cc2)CC1 :: 5.66
CC1CN(c2ncccc2C(F)(F)F)CCN1C(=O)Nc1ccc(C(F)(F)F)cc1 (configuration not stated) :: 7.19
O=C(Nc1cccc2cnccc12)N1CCN(c2ncccc2C(F)(F)F)CC1 :: 5.64
Cc1cccnc1N1CCN(C(=O)Nc2ccc(Cl)cc2)CC1 :: 6.95

Then there is this molecule:
## Task What does the record list as pIC50 for CC1CN(c2ncccc2C(F)(F)F)CC(C)N1C(=O)Nc1ccc(C(F)(F)F)cc1 (configuration not stated) ?
## Result 5.61
